Measured RP-LC retention time, listed per entry for reference.
# Assay Info: gradient 5% acetonitrile 3 min, to 50% in 2 min, to 85% in 15 min, held 3 min, 100 µL/min
# Measurement Setup: column: Zorbax Extend-C18 2.1 x 50 mm; eluents: water / acetonitrile, 0.1% formic acid
Measurement Name: RP-LC retention time (s)

> print(dat)
                                   compound      measurement.name  display.unit  numeric.value
1  O=c1n(Cc2ccc(Cl)cc2)nc2c(S(=O)(=O)N3CCCCC3)cccn12  RP-LC retention time             s            919
2  Cc1cccc(C)c1Nc1c(-c2ccc(Cl)cc2)nc2ncccn12  RP-LC retention time             s            919
3   CC1CCN(C(=O)c2ccc3ncnc(N4CCCC4)c3c2)CC1  RP-LC retention time             s            619
4  O=C([C@@H]1C[C@H](Oc2cccnc2)CN1C(=O)CC1CCCC1)N1CCCC1  RP-LC retention time             s            600
5  CC(NC(=O)CCc1c(-c2ccc(Cl)cc2)nc2ccccn12)c1ccccc1 (centres undefined)  RP-LC retention time             s            700
6  COc1cccc(N2C(=O)Nc3ccccc3C2(O)C(=O)N2CCN(c3ccccn3)CC2)c1 (centres undefined)  RP-LC retention time             s            603
7  CC(C)c1cc(C(=O)Nc2cccc(Cl)c2)nn1C1CCS(=O)(=O)C1 (centres undefined)  RP-LC retention time             s            994
8  COc1ccccc1-c1nnc(SCc2cccc(C(F)(F)F)c2)o1  RP-LC retention time             s            991
9  COc1ccc(NC(=O)Cn2c(C)nc3c(sc4nc(-c5ccccc5)ccc43)c2=O)cc1  RP-LC retention time             s            988
